test: soluble on expression in E. coli; label from the status in PepcDB or PDB records

Sequence String: MGSDKIHHHHHHMQTEVFSDIFPLLSTATPQTLEWLLNIAIDHEYPTGRAVLMEDAWGNAVYFVVSGWVKVRRTCGDDSVALAILGRGDFFGEMAILDESPRSTDVIALSPVKLLSISRERFIQILFKDPQLHHRMLQLMVRRLRQINQRLQIRSSPPAVKLAHTLVSLGESYGQESEQGREIFNIPFKDLAEVTEIGVEETSKIMDKLHDKGWIKIDSANNIIYLINFKQLLNLAGKV
soluble on expression in E. coli: not soluble
--
Sequence String: MKKLITALSLVLVSYASMAAQECSLDFVKSAPNSRYLYSDLGVVTDLKTGLTWMRCPVGMTWDMAQKACSGEAQKVTWQNALLTAEQIRNASGNHVLHNFADKKQWRLPNIKELVTLTERACFHPSMNGTAFESAYSLETGDLGSYIWSNTPGTDARQIMTFESVNGDVIGYSPEANQFSVLLVTDEDLEHHHHHH
soluble on expression in E. coli: not soluble
--
Sequence String: MSLVGGFPHHPVVHHEGYPFAAAAAAAAAAAASRCSHEENPYFHGWLIGHPEMSPPDYSMALSYSPEYASGAAGLDHSHYGGVPPGAGPPGLGGPRPVKRRGTANRKERRRTQSINSAFAELRECIPNVPADTKLSKIKTLRLATSYIAYLMDLLAKDDQNGEAEAFKAEIKKTDVKEEKRKKELNEILKSTVSSNDKKTKGRTGWPQHVWALELKQ
soluble on expression in E. coli: not soluble

---

assay: soluble on expression in E. coli; label from the status in PepcDB or PDB records

Sequence String: SLHVTELTAFLVPLPLKREIKHASFTRTESINLLIRCKLSNGTIGWGEGVPRPYVTGETPEGCLQQLSQSNLHPALMQSASNWPEVIAICDALQFNNDSDDSRGCGSNSLRCAVELSLLDAFGRHFGQPVSAVVPHVAEAAEIHVRQPRVRYSTTITSSGAKSERISALKMRAYGFAQCKIKVGVDGQDDPSRVARIRRWIGGGVDLRLDANEAWRPEEVAEKMRPLREFGVTCIEQPVAHDQVDALASLRESIGVPIMLDESLTSRMDAERAIELGTCDLFNLRLSKCGGFLSCLRLAALARASGLGYQLGCHPGESGVLSAAGRHWASSVRDIRYLEGSYDRHLLTTLPTQEDITFRYGGWAPALDSPGLGVTIREDWLRQNAKAERTFVVEAQ
soluble on expression in E. coli: soluble
//
Sequence String: MSLKQERQEKIEVLKEFKDDGATKFSSYYFDLKKNQILSSGSLTTSWRVIDFSEVLSYQVNRNGHLEQKHHGIARAVTGGIMAGGVGAIVGTTTGENTDYIDHLGLVINLSDGTNFEVKFLKTKTKTNSFTVKTAEGELRSLISIVQSGMNKAQEKAEQEQTKANTIKIESNADPAEEIRKFKKMADEGIISNEEFEAKKKQLLNLQEGHHHHHH
soluble on expression in E. coli: soluble
//
Sequence String: SLGQADTERLLSDRKLVLLVDLDQTLIHTTNDNVPNNLKDVYHFQLYGPNSPWYHTRLRPGALEFLAKMHPYYELHICTFGARNYAHMIAQFLDKDGNFFSHRILSRDECFNATSKTDNLKALFPCGDSMVCIIDDREDVWNMASNLIQVKPYHFFRHTGDINAPPGMSKNELDGKGVDFKELMSQSQK
soluble on expression in E. coli: soluble

---

experiment: soluble on expression in E. coli; label from the status in PepcDB or PDB records

Sequence String: MLSAFFKTAHCALRNMPIQTDLVGKWNFVSSENFDEYLKEVGVGWAIRTIATKTKPALEFAVNGDEWTMNSNSTFKNYTLKWKLGTASDEKTADGRDVSSVFSIENDHLVQIETGKGGGKDSRIERYIENGKLVIVCTCNGVKCTRVYEKAA
soluble on expression in E. coli: not soluble

Sequence String: MIHITSQACFLWHTTINKICNRPMFNPLTIRFWGVRGSIPCPGSHTVRYGGNTPCVEIQANGQRIILDGGTGLRVLGEHLMGQQPVTAHLFFTHTHWDHIQGFPFFQPAFVPGNQFHIYAVPGKNGQGIERRLNDQMLHPNFPVPLQIMGGDLRFYDLEVGERVHLGDGVVVSNEALNHPGGGVGYRVSWQGIHVAYITDTEHLPDRLHPGAFALADHADVMIYDATYTDEEYYHPQQSKVGWGHSTWQEAVKLAQAAQVKQLILFHHDPSHDDDCLDRIGELARAQFPQTLLAREGLIISVYPNVIHFPATPQASLEHHHHHH
soluble on expression in E. coli: not soluble

---

experiment: soluble on expression in E. coli; label from the status in PepcDB or PDB records
Measure Name: soluble on expression in E. coli

Sample records with soluble on expression in E. coli:
Sequence String: MSLKITGNTILITGGGSGIGRALAEAFHQAGNRVIISGRRQAVLDEVTAANPGMASMVMDAGDAEGIRAFAEALVKAHPTLNAVINNAGIMRPEEIAAAPDYLDTAEETIATNLLAPIRLTAALLPHFLKQPAATVLTVSSGLAFVPMVLTPTYSATKSAIHAYSVALREQLKETSVEVIEIVPPYVQTTLMGEGQANDERAMPLEAFISEVMDILKNRPDEKEVVVERCKPLRFAAQNGNFDQVFAMINHMHEGHHHHHH
Measure Name: soluble on expression in E. coli
Test Value: soluble

Sequence String: MAHHHHHHMCLLSFFSLYPLGSFSSGKSNMDTPPISDDDKEVIDRLFASDVPQSLSRHAVLILHYHRTVFGSMVPSNVLLAGCLLYSCKWLSYPSGNSFLKNYFQGMKTSDIVGLEMVLHGTVRQNFMLVEACLRSEMSEIVRLNDVPHNRERIVLVCLNLVRALYRTRWCLLPETAARGALLVACEMCDVHLKSLPESFNTTMVTCAVDYLRSIFAQSRC
Measure Name: soluble on expression in E. coli
Test Value: not soluble

Sequence String: MDAENRVIINVGGIRHETYKATLKKIPATRLSRLTEGMLNYDPVLNEYFFDRHPGVFAQIINYYRSGKLHYPTDVCGPLFEEELEFWGLDSNQVEPCCWMTYTAHRDTQETLAVL
Measure Name: soluble on expression in E. coli
Test Value: soluble

Sequence String: MGSDKIHHHHHHMKKIPCVMMRGGTSRGAFLLAEHLPEDQTQRDKILMAIMGSGNDLEIDGIGGGNPLTSKVAIISRSSDPRADVDYLFAQVIVHEQRVDTTPNCGNMLSGVGAFAIENGLIAATSPVTRVRIRNVNTGTFIEADVQTPNGVVEYEGSARIDGVPGTAAPVALTFLNAAGTKTGKVFPTDNQIDYFDDVPVTCIDMAMPVVIIPAEYLGKTGYELPAELDADKALLARIESIRLQAGKAMGLGDVSNMVIPKPVLISPAQKGGAINVRYFMPHSCHRALAITGAIAISSSCALEGTVTRQIVPSVGYGNINIEHPSGALDVHLSNEGQDATTLRASVIRTTRKIFSGEVYLP
Measure Name: soluble on expression in E. coli
Test Value: not soluble

Sequence String: MQLPVMPPVSPMLAKSVTAIPPDASYEPKWDGFRSICFRDGDQVELGSRNERPMTRYFPELVAAIRAELPHRCVIDGEIIIATDHGLDFEALQQRIHPAESRVRMLADRTPASFIAFDLLALGDDDYTGRPFSERRAALVDAVTGSGADADLSIHVTPATTDMATAQRWFSEFEGAGLDGVIAKPPHITYQPDKRVMFKIKHLRTADCVVAGYRVHKSGSDAIGSLLLGLYQEDGQLASVGVIGAFPMAERRRLLTELQPLVTSFDDHPWNWAAHVAGQRTPRKNEFSRWNVGKDLSFVPLRPERVVEVRYDRMEGARFRHTAQFNRWRPDRDPRSCSYAQLERPLTVSLSDIVPGLR
Measure Name: soluble on expression in E. coli
Test Value: not soluble

Sequence String: MSLRQPNPSQKKAPTGQVRIISGLWRGRKLPVHDAEGLRPTTDRVKETLFNWLAQEVPNARCLDLFAGSGGLGFECASRQANQVTMLELNPLAFQQLKTNVQSLKAENIELIHTDALAFLRQSGKPYDVVFIDPPFRQGLLQETTQLLEQNGWLAPQAMIYIECEKELPLTELPPHWHLHREKSAGQVCYREGHHHHHH
Measure Name: soluble on expression in E. coli
Test Value: not soluble

Sequence String: MQIQQNNSLIYNTLTKKLSSFIPIKSTRRKLRNHIQYKLEHPKVTNYLSNNYINPFLEGKIPHFDFEKKHYFKNDKIIWQFWYQGKNQASPMIQQCFNSVQSQMKDDYTIIILDKDNIKDYLDFPPFVIEKLENNFFGEKTITFFSDLLRVCLLATYGGIWCDASIFLSSKIPSELCDKDFFTFERSKIKPSKEKLKKFIKSGYFSYGYFNWNDDFKVKMLSSFMIAKTNNTFIQTLKDILMNYWKNEQSSENHYYFILHIIFELLKEHGFVNDIYKNMSDIECHLLQFSAKEKFNSTLWEEIQKQSFLHKLTHFKSIKKDSMIDKIILQSLEHHHHHH
Measure Name: soluble on expression in E. coli
Test Value: soluble

Sequence String: MGSDKIHHHHHHMKILYISNFNLPDFQNDMIFHGLRSVFGNDCIDSNEAWYMYEDFRNYWNVRVPENGMSYGRGFTLYGKLPKIDIDRKNIYEKIKDKYFDKIVYGSITRNNMFLDEVISIYEKNNIIMIDGEDNTEINQNFFGKGIYFKRELIYEPTSYLKPIGFCIPNETIVNNISIKEKDYGHVIPGDPETYIYTDEVSYFEDYRKSYFGVTMKKGGWDCLRHYEILMNGCIPYFLNLEQCPKYTMTHFPKNIILDVINKINTESNILNFYNEYVDILLEYTRNKLTTRKVIESIL
Measure Name: soluble on expression in E. coli
Test Value: not soluble

Sequence String: MAHHHHHHMGGPPTIEELKREKIIPHVFPDENVDLTVDMYISFKSGKEVNHGNILDLAGTGSVPRNIKFSEEPPEDYCYILFMIDPDFPSRRRPDGRDYVHWAVSGIKSKELVKGTDKNCITLLPYVGPSIKKGTGLHRISFILSLVKEENKGNVTGVPLYRGEHYITRVKFNNCQSAYNVIQMNDMKIVGFNWCQMRRK
Measure Name: soluble on expression in E. coli
Test Value: soluble

Sequence String: MGSDKIHHHHHHMSRTADSLPSTRQRRKEARPQELLDAALDLFVEKGFAATRSEEVAARAGVSKGTLYLYYPSKEELLKAVIRENISQEIAEGEDIVRGFDGPTAELLAHLMAEWWRRIGETRASGICKLIISEVRNFPDIAQFYLDEVVLPAERMIGGVVQRGIDRGEFRPVAVDDVVHALMAPMLFLMLHKHSMGACPNLDRRLDAPRVVAMQVDLVLNGLVPRTAPRGGPRKAKA
Measure Name: soluble on expression in E. coli
Test Value: not soluble

Could you now consider this next sequence?
Summary for this sequence, GYMDLMPFINKAGCECLNESDEHGFDNCLRKDTTFLESDCDEQLLITVAFNQPVKLYSMKFQGPDNGQGPKYVKIFINLPRSMDFEEAERSEPTQALELTEDDIKEDGIVPLRYVKFQNVNSVTIFVQSNQGEEETTRISYFTFIGTPVQATNMNDFK : soluble on expression in E. coli is soluble
